// compounds with Ki on Prothrombin (Homo sapiens), multi-source literature
Simple rule here: Ki less than 200 nM is satisfied, otherwise not satisfied.

Lookup: Take the compound `CC(=O)N1CCN(Cc2csc(C(=O)Nc3ccc(Cl)cc3C(=O)Nc3ccc(Cl)cc3)c2Cl)CC1` and say whether its Ki is less than 200 nM.
Found: not satisfied

Lookup: Take the compound `CC(=N)N1CCC(Oc2ccc3c(c2)nc(CCC(N)=O)n3Cc2ccc3ccc(C(=N)N)cc3c2)CC1` and say whether its Ki is less than 200 nM.
Found: not satisfied

Continuing:
Lookup: Take the compound `Cc1cc(OCCc2ccccc2-n2cnnn2)cc(C(=O)N(CC(C)C)CC(C)C)c1` and say whether its Ki is less than 200 nM.
Found: satisfied

Lookup: Take the compound CC1CNc2c(cccc2S(=O)(=O)N[C@@H](Cc2nc3ccccc3o2)C(=O)N2CCC(CCO)CC2)C1 (stereo partly drawn) and say whether its Ki is less than 200 nM.
Found: not satisfied

Lookup: Take the compound `O=C(Cn1c(Cl)cnc(NCC(F)(F)c2cccc[n+]2[O-])c1=O)NCc1cc(F)ccc1C(F)(F)F` and say whether its Ki is less than 200 nM.
Found: satisfied

Lookup: Take the compound `N/C(=N\O)c1ccc(CC(=O)CN2CCCC[C@H](NS(=O)(=O)c3ccc4c(c3)CCO4)C2=O)cc1` and say whether its Ki is less than 200 nM.
Found: not satisfied

Lookup: Take the compound `Cc1cc(C(=O)Nc2ccc(-c3ccccc3S(N)(=O)=O)cc2)n(-c2ccc(N)cc2)n1` and say whether its Ki is less than 200 nM.
Found: not satisfied

Lookup: Take the compound `COC(=O)CN(c1ccc2c(c1)nc(C)n2Cc1ccc2ccc(C(=N)N)cc2c1)C1CCN(C(C)=N)CC1` and say whether its Ki is less than 200 nM.
Found: not satisfied
